test: AUC (0 to 24 hrs) in dog plasma at 2 mg/kg, po by LC-MS/MS analysis; format: ADME, organism-based, Canis lupus familiaris; set-up: time < 24 hr, dose 2 mg/kg, route oral
Measured Quantity: AUC(0-t) at 24 h (µM·h)

Worked cases, answers included:
>  <Smiles>
C[C@H](NS(=O)(=O)c1ccc(-c2c(C#N)c3cc(Cl)cnc3n2C2CCC2)nc1)C(F)(F)F

>  <AUC(0-t) at 24 h, µM·h>
4.08

$$$$
>  <Smiles>
C[C@H](NS(=O)(=O)c1ccc(-c2c(C#N)c3cc(C(F)(F)F)cnc3n2C2CCC2)nc1)C(F)(F)F

>  <AUC(0-t) at 24 h, µM·h>
8.16

$$$$

a = Cc1cnc2c(c1)c(C#N)c(-c1ccc(S(=O)(=O)N[C@@H](C)C(F)(F)F)cn1)n2C1CCC1
b = C[C@H](NS(=O)(=O)c1ccc(-c2c(C#N)c3cc(Cl)cnc3n2C2CCCC2)nc1)C(F)(F)F
Input: Could you tell me which of a and b has the lower AUC(0-t) at 24 h reading? Selection: enter the item's label.
Output: b
